Target: PIP4Kalpha (Homo sapiens, UniProt P48426)
Sequence (P48426 2-406): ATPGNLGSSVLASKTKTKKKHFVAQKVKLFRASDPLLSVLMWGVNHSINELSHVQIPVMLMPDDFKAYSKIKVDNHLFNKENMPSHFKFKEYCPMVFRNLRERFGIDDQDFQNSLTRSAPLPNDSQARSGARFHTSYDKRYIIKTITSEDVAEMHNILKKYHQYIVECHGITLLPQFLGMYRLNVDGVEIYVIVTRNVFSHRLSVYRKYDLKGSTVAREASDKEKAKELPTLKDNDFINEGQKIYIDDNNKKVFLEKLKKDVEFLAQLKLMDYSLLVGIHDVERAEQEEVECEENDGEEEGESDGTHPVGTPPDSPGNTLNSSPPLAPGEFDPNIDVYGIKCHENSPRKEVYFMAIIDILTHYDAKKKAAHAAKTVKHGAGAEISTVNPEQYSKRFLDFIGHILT
Test: […] lipid kinase assay (PI5P phosphorylation) with purified recombinant enzyme; weak inhibition
Property Measured: IC50

Lab entry: PIP4Kalpha (Homo sapiens, UniProt P48426) assay, compound Cn1nnnc1Sc1ncnc2scc(-c3cccc(S(C)(=O)=O)c3)c12 , IC50 = 50 to 100 µM
